FYI, the data here is from patent US7531539B2.

Target: kinase domain of the human TrkB receptor (amino acids 526-838) (Homo sapiens, UniProt Q16620)
Sequence (Q16620 510-822): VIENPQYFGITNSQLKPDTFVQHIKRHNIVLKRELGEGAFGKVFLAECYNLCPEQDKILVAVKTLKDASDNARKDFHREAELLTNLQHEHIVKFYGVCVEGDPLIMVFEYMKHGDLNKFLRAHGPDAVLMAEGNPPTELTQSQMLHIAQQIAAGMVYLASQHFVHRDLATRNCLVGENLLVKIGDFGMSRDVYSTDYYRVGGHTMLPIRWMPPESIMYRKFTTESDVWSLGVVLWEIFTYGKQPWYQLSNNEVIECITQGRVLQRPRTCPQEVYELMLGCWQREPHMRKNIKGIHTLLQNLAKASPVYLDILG
Please use YES for IC50 under 2 nM and NO for everything else, ties included.

Lookup: Would you kindly verify if IC50 of NCC1CCN(c2nc(Nc3cc(-c4ccccc4)n[nH]3)c3cccn3n2)CC1 is strictly less than 2 nM?
Found: NO

Lookup: API: query returns whether the compound falls strictly under 2 nM in IC50. Query: N#CCC(=O)NC1CCN(c2nc(Nc3cc(C4CC4)n[nH]3)c3cccn3n2)CC1
Found: YES

Lookup: Hello, I'm reviewing records and need to know if IC50 of O=C(CCc1ccccc1)NC1CCN(c2nc(Nc3cc(C4CC4)n[nH]3)c3cccn3n2)CC1 is below 2 nM. Could you check?
Found: YES

Lookup: Just wondering, is IC50 of O=C(Cc1cccs1)NC1CCN(c2nc(Nc3cc(C4CC4)n[nH]3)c3cccn3n2)CC1 below 2 nM?
Found: YES

Lookup: Check if IC50 falls below 2 nM for c1ccc(CNC2CCN(c3nc(Nc4cc(C5CC5)n[nH]4)c4cccn4n3)CC2)cc1 .
Found: YES

Lookup: Confirm or reject: IC50 of NC1CCN(c2nc(Nc3cc(OCC4CC4)n[nH]3)c3cccn3n2)CC1 lies strictly below 2 nM
Found: NO

Lookup: Answer whether the compound Cc1cc(Nc2nc(N3CCOCC3)nn3cccc23)[nH]n1 has IC50 strictly less than 2 nM
Found: NO
